The values you see were collected from patent US20250129150A1.

# Target or test system: hIL-13 (human, UniProt P35225 35-146, limits assumed)
# Sequence (P35225 other isoform, or with tags, fused parts or gaps limits assumed): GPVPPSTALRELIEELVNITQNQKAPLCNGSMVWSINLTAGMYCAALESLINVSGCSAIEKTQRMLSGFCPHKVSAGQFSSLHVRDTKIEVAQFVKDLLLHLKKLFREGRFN
# Assay name: cell-based or functional assay
In this section we review reported TARC Release IC50 (A549 cells) values for a set of binders.
Readout type: TARC Release IC50 (A549 cells) (nM)

[[record]]
binder = "Construct 110 (antibody, human IgG1, kappa, V domains shown) VH: EVQLLESGGGLVQPGGSLRLSCAASGFSLSAYSVNWVRQAPGKGLEWLGMIWGDGKIVYNSALKSRLTISKDSSKNTVYLQMNSLRAEDTAVYYCAGDGYYPYAMDNWGQGTTVTVSS VL: DIQLTQSPSSLSASVGDRVTITCRASKSVDSYGNSFMHWYQQKPGKAPKLLIYLASNLESGVPSRFSGSGSGTDFTLTISSLQPEDFATYYCQQNNEDPRTFGGGTKVEIKR"
readout_type = "TARC Release IC50 (A549 cells)"
obs_value = 1

[[record]]
binder = "Construct 107 (antibody, human IgG1, kappa, V domains shown) VH: EVQLLESGGGLVQPGGSLRLSCAASGFSLHAYSVNWVRQAPGKGLEWLGMIWGDGKIVYNSALKSRLTISKDSSKNTVYLQMNSLRAEDTAVYYCAGDGYYPYAMDNWGQGTTVTVSS VL: DIQLTQSPSSLSASVGDRVTITCRASKSVDSYGNSFMHWYQQKPGKAPKLLIYLASNLESGVPSRFSGSGSGTDFTLTISSLQPEDFATYYCQQNNEDPRTFGGGTKVEIKR"
readout_type = "TARC Release IC50 (A549 cells)"
obs_value = 1.3

[[record]]
binder = "Construct 108 (antibody, human IgG1, kappa, V domains shown) VH: EVQLLESGGGLVQPGGSLRLSCAASGFSLDAYSVNWVRQAPGKGLEWLGMIWGDGKIVYNSALKSRLTISKDSSKNTVYLQMNSLRAEDTAVYYCAGDGYYPYAMDNWGQGTTVTVSS VL: DIQLTQSPSSLSASVGDRVTITCRASKSVDSYGNSFMHWYQQKPGKAPKLLIYLASNLESGVPSRFSGSGSGTDFTLTISSLQPEDFATYYCQQNNEDPRTFGGGTKVEIKR"
readout_type = "TARC Release IC50 (A549 cells)"
obs_value = 1

[[record]]
binder = "Construct 96 (antibody, human IgG1, kappa, V domains shown) VH: EVQLLESGGGLVQPGGSLRLSCAASGFSLNAYSVNWVRQAPGKGLEWLGMIWGDGKIVYNSALKSRLTISKDSSKNTVYLQMNSLRAEDTAVYYCAGDGYYPYAMDNWGQGTTVTVSS VL: DIQLTQSPSSLSASVGDRVTITCRASKSVDSYGNSFMHWYQQKPGKAPKLLIYLASDLESGVPSRFSGSGSGTDFTLTISSLQPEDFATYYCQQNNEDPRTFGGGTKVEIKR"
readout_type = "TARC Release IC50 (A549 cells)"
obs_value = 1

